Tested on: SK-MEL-2 melanoma
assay-explanation: NCI-60 one-dose screen, 48 h
condition-notes: 10 µM unless noted
Compounds without any hit were thinned out: in the full panel of roughly 83,000, 20% have a hit. Activity calls are given as the source filed them. How the source made its calls: active means growth percent below 10; inactive means the rest.
Outcome codes: active, inactive

molecule	label-class
C#CC[C@@H]1C[C@]2(C)[C@H]3CC=C4[C@H]5[C@@H](C)[C@H](C)CC[C@]5(C(=O)NCCCCCCCCN)CC[C@@]4(C)[C@]3(C)CC[C@H]2C(C)(C)[C@H]1OC(C)=O	inactive
CCCCCCCCCCCCCCCC1=NCC[N+]1(CCO)CCO	inactive
OC(c1cc(-c2ccc(C(F)(F)F)cc2)nc(-c2ccc(C(F)(F)F)cc2)c1)C1CCCCN1 (centres undefined)	active
CN(C)c1ccc(C(c2ccccc2)c2ccc(N(C)C)cc2)cc1	inactive
C=CCn1c(SCC(=O)Nc2ccc(/C(C)=N\O)cc2)nnc1-c1cc(-c2ccccc2)nc2ccccc12	inactive
CCCCCNCCCCCNc1cc(OC)cc2cccnc12	inactive
C#CC[C@@H]1C[C@]2(C)[C@H]3CC=C4[C@H]5CC(C)(C)CC[C@]5(C(=O)NCCCCN)CC[C@@]4(C)[C@]3(C)CC[C@H]2C(C)(C)[C@H]1OC(C)=O	inactive
CCc1ccc(Nc2cc(C)c3ccc(O)cc3n2)cc1	inactive
Cc1ccc(/C=C/C(=N/N=C(N)N)c2ccccc2)cc1	inactive
